- System: HOP-62
- runDescription: NCI tumour cell line growth inhibition, 48 h
Activity calls are given as the source filed them. Rule as the data show it: active = GI50 up to about 1.1 µM and inactive = higher.
The entries below are paired with their reported GI50.

Known GI50 results, listed for orientation:
CC1(O)CC2(O)C=CC3=C(C(=O)c4cccc(O)c4C3=O)C2(O)C(=O)C1O (centres undefined); 21.6 µM (inactive)
CC1OC(OC2C(OC(=O)[C@]34CCC(C)(C)C[C@H]3C3=CC[C@@H]5[C@@]6(C)CC[C@H](OC7OC(CO)C(O)C(O)C7OC7OC(CO)C(O)C(O)C7O)C(C)(C)[C@@H]6CC[C@@]5(C)[C@]3(C)CC4)OCC(O)C2O)C(O)C(O)C1OC1OCC(O)C(O)C1O (some centres undefined); 15.3 µM (inactive)

In the following, a different molecule is considered.
The molecule identified as CN(C)CCNC(=O)c1cccc2c(NC(CCC(N)=O)C(=O)O)c3ccccc3nc12 (centres undefined) registered its GI50 at 6.4 µM (inactive)

###

Below, each entry is listed alongside its reported GI50.
- Tested on: UACC-257
- runDescription: NCI tumour cell line growth inhibition, 48 h
Active and inactive are the calls of the source. Rule as the data show it: active = GI50 up to about 1.1 µM and inactive = higher.

Example cases with answers are listed next.
COP(=O)(/C=C/c1cc(C(=O)OCc2ccccc2)n(S(=O)(=O)c2ccccc2)c1)OC; > 100 µM (inactive)
CCOC(=O)C12CCSC1C1(C#N)C(C#N)=CC2(N=P(c2ccccc2)(c2ccccc2)c2ccccc2)n2c(=O)n(-c3ccccc3)c(=O)n21 (configuration not stated); 33.6 µM (inactive)
COC1C(O)CC(OC2CC(OC3CC(O[C@@H]4C(=O)c5c(cc6cc(OC7CC(OC8CC(O)C(O)C(C)O8)C(O)C(C)O7)c(C)c(O)c6c5O)C[C@H]4[C@H](OC)C(=O)[C@@H](O)[C@@H](C)O)OC(C)C3O)OC(C)C2O)OC1C (some centres not stated); < 0.0166 µM (active)
CC(=O)Nc1nc(Cl)cc(NCC2(CO)CCC2)n1; > 100 µM (inactive)
Cc1cc(C)nc(NS(=O)(=O)c2ccc(NN=c3c4ccccc4n(C)c4ccccc34)cc2)n1; 39.3 µM (inactive)
CC1=NNC(=S)NCCCN2CCN(CCCNC(=S)NN=C(C)C=NNC(=S)NCCCN3CCN(CCCNC(=S)NN=C1)CC3)CC2; > 100 µM (inactive)

In plain terms, CC1=NN(c2ccc(S(=O)(=O)O)cc2)C2(C1)SCC(=O)N2c1nc2ccccc2s1 (configuration not stated) has a documented GI50 of > 100 µM (inactive)

###

Listing: GI50 of selected molecules
- Test system: PC-3
- runDescription: NCI tumour cell line growth inhibition, 48 h
Activity calls are given as the source filed them. Cut-off read from the data, not from the text of the source: active = GI50 up to about 1.1 µM and inactive = higher.

# example entries with known answers
CC1(O)CC2(O)C=CC3=C(C(=O)c4cccc(O)c4C3=O)C2(O)C(=O)C1O (centres undefined); 6 µM (inactive)
COC(=O)C(I(OS(=O)(=O)c1ccc(C)cc1)c1ccccc1)=P(c1ccccc1)(c1ccccc1)c1ccccc1; 18.9 µM (inactive)
COc1cc(C2c3cc4c(cc3[C@@H](Nc3cccc(O)c3)C3COC(=O)[C@H]23)OCO4)cc(OC)c1O (some centres undefined); 2.14 µM (inactive)

Sample CCOC(=O)C(Cc1ccc(OC(=O)c2ccc(OC)cc2)cc1)NC(=O)C(F)(F)F (centres undefined) , system: PC-3. Its GI50 is > 100 µM (inactive)

###

- System: ACHN
- runDescription: NCI tumour cell line growth inhibition, 48 h
Calls of active or inactive are those of the source. No stated cut-off is given here; in the data, active = GI50 up to about 1.1 µM and inactive = higher.
measurementKind: GI50

Field: example entries. Status: answers known.
CC(C)(C)S(=O)OC12CC3CC(CC(C3)C1)C2 (stereo unspecified); > 100 µM (inactive)
COc1ccc2nc3cc(Cl)ccc3c(Nc3ccccc3-c3ccccc3Nc3c4ccc(Cl)cc4nc4ccc(OC)cc34)c2c1; > 29.4 µM (inactive)
C/C(=N\Oc1cc(Cl)ncn1)c1ccccn1; 90.6 µM (inactive)

GI50 reading for "O=C1NC(Nc2ccccc2)=NC(C(F)(F)F)(C(F)(F)F)N1" : 35.1 µM (inactive)

// field: GI50; key: "NC1=NS(=O)(=O)Nc2nc(-c3cccs3)[nH]c21" ; value = > 100 µM (inactive)

GET /value?item= "CCS(=O)(=O)CCn1c(=O)c2c(ncn2C)n(C)c1=O" &field=GI50 returns > 100 µM (inactive)

According to the records, this molecule "NCC1CCN(c2nc3ccccc3c3c2CCCC3)CC1" displays GI50 of 12.6 µM (inactive)

###

- System: NCI-H460
- runDescription: NCI tumour cell line growth inhibition, 48 h
Activity calls are given as the source filed them. Rule as the data show it: active = GI50 up to about 1.1 µM and inactive = higher.
measurementKind: GI50

Recorded GI50 (compound "CCOC(=O)c1cc(OC(=O)CC)c2c(OC)ccc(OC)c2c1" ): > 100 µM (inactive)

Lab book: GI50 of "CCOc1ccc(NC(=O)C(=O)CC(=O)c2sc(NNC(C)=O)nc2C)cc1" noted as > 100 µM (inactive)

The recorded GI50 for CCCCCCCCCCCCCCCCCCNc1ccn(C2OC(COP(=O)(O)OCC(COP(=O)(O)OCC3OC(n4cc(C)c(=O)[nH]c4=O)CC3N=[N+]=[N-])OCCCCCCCCCCCCCCCCCC)C(O)C2O)c(=O)n1 (stereo not given) is 54.3 µM (inactive)

Quick note, GI50 for O=C1NC(c2ccccc2)N=C2Oc3ccccc3C=C12 (stereo not given) landed at 0.565 µM (active)

Value of GI50 reported for the compound "C=CCCCCCCCCC(=O)O" is 94.2 µM (inactive)

###

- Tested on: SNB-19
- runDescription: NCI tumour cell line growth inhibition, 48 h
Activity calls are given as the source filed them. No stated cut-off is given here; in the data, active = GI50 up to about 1.1 µM and inactive = higher. Starred links: 1 amine or outer side, 2 acyl side, 3 side chain; linkers in the order of their positions; H or OH if unused. Residues, ends and D or L forms follow the SMILES beside them. *: point of attachment. γGlu = O=C(O)[CH](CCC(=O)[*:2])N[*:1]; NHOH = ON*
Measured GI50, listed per entry.

CNC(=O)NCCCCC(NC(=O)OCc1ccccc1)C(=O)OCc1ccccc1 (stereo not given); > 100 µM (inactive)
CS/C(=N/C(=O)c1ccccc1Cl)SCCS/C(=N\C(=O)c1ccccc1Cl)SC; > 100 µM (inactive)
O=C(O)c1ccc2c(O)c(O)ccc2c1; 18.8 µM (inactive)
C/N=C(/NC)N(C)c1nc(=[N+](C)C)ss1.[O-][Cl+3]([O-])([O-])[O-]; > 100 µM (inactive)
CC(C)N1CCCOC(c2ccc([N+](=O)[O-])cc2)O1 (stereo not given); > 10 µM (inactive)
CCOC(=O)CNC(=O)C(CCC(=O)NO)NC(=O)CCC(N)C(=O)O (stereo not given) (γGlu-Glu(NHOH)-Gly-OEt; configuration not given here); > 100 µM (inactive)

// GI50 lookup, compound = CC(=O)NC(C)(C)C1CCC(C)=C(c2ccccc2)C1 (stereo not given) , result: > 100 µM (inactive)

Summary for this compound, C=CCCCCCCCCC(=O)O [UNDECYLENIC ACID] : GI50 is 150 µM (inactive)

Per the record, CCN(/C=C1/C(=O)C(c2ccccc2)N(c2ccccc2)C1=O)CC (stereo not given) has GI50 of > 10 µM (inactive)

Given item "CNS(=O)(=O)NNS(=O)(=O)c1cccc([N+](=O)[O-])c1" , the value recorded as its GI50 is > 100 µM (inactive)

###

- Test system: PC-3
- runDescription: NCI tumour cell line growth inhibition, 48 h
Calls of active or inactive are those of the source. Rule as the data show it: active = GI50 up to about 1.1 µM and inactive = higher.
The following compounds are listed with their measured GI50 values.

Cc1ccc(S(=O)(=O)CC2(Br)CCc3ccccc3C2=O)cc1 (centres undefined); 42.4 µM (inactive)

// next item, GI50 requested
What the record says about "O=C1NC(Nc2ccccc2)=NC(C(F)(F)F)(C(F)(F)F)N1" : GI50 is 20.5 µM (inactive)

###

- Tested on: UACC-62
- runDescription: NCI tumour cell line growth inhibition, 48 h
Activity calls are given as the source filed them. No stated cut-off is given here; in the data, active = GI50 up to about 1.1 µM and inactive = higher.
Use one of these outcomes when replying: active, inactive

These recorded examples may help you get a feel for the data.
Cc1nc2c(n1CC(C)(C)C)C(=O)c1ccccc1C2=O; inactive
COc1cccc2c1[C@]1(O)C(O)CCCC21 (stereo not given in full); inactive
CN(Cc1cnc2nc(N)nc(N)c2n1)c1ccc(C(=O)NC(CCC(=O)O)C(=O)O)cc1C(F)(F)F (stereo not given); active
Cc1ccc(NCCO)cc1; inactive
c1ccc(P(=Nc2ccccc2N=P(c2ccccc2)(c2ccccc2)c2ccccc2)(c2ccccc2)c2ccccc2)cc1; active
O=C1c2c(Br)sc(Br)c2C(=O)C1(O)O; inactive
COc1cc(C2c3cc4c(cc3[C@@H](Nc3cccc(O)c3)C3COC(=O)[C@H]23)OCO4)cc(OC)c1O (stereo not given in full); inactive
C(=N\Nc1nnc2c(n1)[nH]c1ccccc12)/c1cccnc1; inactive
COc1ccc(CN2C(=O)C(=O)N(C)C2=O)c2ccccc12; inactive

Could you kindly confirm the outcome this assay logged for "CCOc1cc2c(cc1O)/C(=N\OC)C[C@@H]1[C@@H]2CC[C@]2(C)[C@@H](O)CC[C@@H]12" ? active
